Average EC50, HEK-Blue IL-2R (CD122+, CD132+) Reporter Assay, MMP2 cleaved molecule values by entry
SYSTEM_NAME: T1, IL-2Rβγ on HEK-Blue IL-2Rβγ reporter cells (InvivoGen) (UniProt P14784 27-551; P31785 23-369, limits assumed)
T1 sequence (looked up) 1: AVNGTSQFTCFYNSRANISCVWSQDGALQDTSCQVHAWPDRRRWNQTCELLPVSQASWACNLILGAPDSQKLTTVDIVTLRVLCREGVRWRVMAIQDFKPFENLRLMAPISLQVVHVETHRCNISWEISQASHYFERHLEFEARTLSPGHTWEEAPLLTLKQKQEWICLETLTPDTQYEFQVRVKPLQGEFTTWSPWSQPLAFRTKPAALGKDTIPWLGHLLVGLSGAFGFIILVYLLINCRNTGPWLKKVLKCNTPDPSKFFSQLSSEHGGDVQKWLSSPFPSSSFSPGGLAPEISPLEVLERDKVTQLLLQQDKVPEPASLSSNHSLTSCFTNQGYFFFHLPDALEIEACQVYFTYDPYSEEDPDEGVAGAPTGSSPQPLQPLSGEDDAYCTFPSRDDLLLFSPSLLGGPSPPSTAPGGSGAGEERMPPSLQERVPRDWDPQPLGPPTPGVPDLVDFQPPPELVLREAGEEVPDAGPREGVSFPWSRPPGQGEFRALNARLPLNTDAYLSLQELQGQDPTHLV
T1 sequence (looked up) 2: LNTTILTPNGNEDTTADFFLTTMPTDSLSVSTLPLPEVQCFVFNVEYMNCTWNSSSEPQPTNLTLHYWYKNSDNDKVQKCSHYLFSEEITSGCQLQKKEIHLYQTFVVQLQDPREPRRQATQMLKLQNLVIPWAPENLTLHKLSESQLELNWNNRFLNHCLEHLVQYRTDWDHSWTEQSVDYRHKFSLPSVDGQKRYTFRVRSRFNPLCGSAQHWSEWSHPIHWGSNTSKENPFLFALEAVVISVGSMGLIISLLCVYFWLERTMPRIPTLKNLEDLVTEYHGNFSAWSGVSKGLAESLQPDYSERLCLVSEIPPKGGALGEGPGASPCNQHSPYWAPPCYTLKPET
TEST_DESCRIPTION: cell-based or functional assay
Primed or numbered codes have the meaning given here. [ ]: non-standard residue; d: D form. Ygp″ = O-(8x polyethylene glycol-amino)-tyrosine; Yn3″ = O-(9x polyethylene glycol-azido)-tyrosine; hSer = N[C@@H](CCO)C(=O)O; Nle = CCCC[C@H](N)C(=O)O
Respond numerically; units are pM and should not be typed.

BINDER	NUMBER
CMP-302, MMP2 cleaved (ligand, ends and bridges not checked; also: MMP2 cleaved, ring opened, cut site and remnants not given here) GPLGLAGAPTSSSTKKTQLQLEHLLLDLQEILNGINNYKNPKLTR[Nle]L[hSer][Yn3″]KF[Ygp″][Nle]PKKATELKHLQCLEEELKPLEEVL[hSer]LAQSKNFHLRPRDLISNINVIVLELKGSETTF[hSer]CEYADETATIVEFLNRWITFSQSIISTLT	6.46

Turning now to a further binder:
State its Average EC50, HEK-Blue IL-2R (CD122+, CD132+) Reporter Assay, MMP2 cleaved molecule: CMP-301, MMP2 cleaved (ligand, ends and bridges not checked; also: MMP2 cleaved, ring opened, cut site and remnants not given here) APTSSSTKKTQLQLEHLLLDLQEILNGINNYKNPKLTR[Nle]L[hSer][Yn3″]KF[Ygp″][Nle]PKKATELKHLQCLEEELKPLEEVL[hSer]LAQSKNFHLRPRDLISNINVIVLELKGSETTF[hSer]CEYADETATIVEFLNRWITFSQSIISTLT
7.26
